Source: patent US20210403591A1

The following binders are listed with their measured % double-positive cells vs WT values.
Biological target: T1, mTfR-1 S275A on Expi293 cells (mouse, UniProt Q62351 1-763)
T1 construct: whole, on cells
T1 sequence (Q62351 whole entry S275A): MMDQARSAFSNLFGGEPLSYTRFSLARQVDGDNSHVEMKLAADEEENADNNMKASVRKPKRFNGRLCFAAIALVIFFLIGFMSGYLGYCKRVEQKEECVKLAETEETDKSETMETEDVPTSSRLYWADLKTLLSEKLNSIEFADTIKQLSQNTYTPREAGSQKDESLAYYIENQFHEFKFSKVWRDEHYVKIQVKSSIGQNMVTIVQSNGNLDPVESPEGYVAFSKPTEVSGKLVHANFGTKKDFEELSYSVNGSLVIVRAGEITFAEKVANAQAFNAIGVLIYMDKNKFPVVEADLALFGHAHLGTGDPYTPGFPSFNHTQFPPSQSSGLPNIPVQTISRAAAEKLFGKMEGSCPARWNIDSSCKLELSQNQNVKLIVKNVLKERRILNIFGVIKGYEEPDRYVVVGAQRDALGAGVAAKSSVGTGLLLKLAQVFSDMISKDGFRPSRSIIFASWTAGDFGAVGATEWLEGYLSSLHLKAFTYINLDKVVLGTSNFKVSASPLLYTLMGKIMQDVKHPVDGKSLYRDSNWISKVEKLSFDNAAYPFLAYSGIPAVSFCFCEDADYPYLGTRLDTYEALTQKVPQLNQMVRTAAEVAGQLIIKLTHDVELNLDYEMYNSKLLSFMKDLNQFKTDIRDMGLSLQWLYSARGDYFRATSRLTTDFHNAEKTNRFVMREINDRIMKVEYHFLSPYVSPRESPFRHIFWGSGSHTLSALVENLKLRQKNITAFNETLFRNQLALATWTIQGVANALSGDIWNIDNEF
Assay: FACS, transfected Expi293 cells
I only need the number, in %, no unit after it.

Look over these answered cases.
Notebook: Clone C variant 13 VNAR-hFc (Fc fusion, not shown: a dimerising Fc or GST, also called Clone C v13; Clone C var; 13) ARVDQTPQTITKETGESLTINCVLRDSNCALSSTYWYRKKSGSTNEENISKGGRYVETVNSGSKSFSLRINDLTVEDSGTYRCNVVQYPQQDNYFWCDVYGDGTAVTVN , % double-positive cells vs WT read as 54

Notebook: 8D3 antibody (anti-mouse TfR-1 control; 8D3-hFc formatted antibody) (antibody, V domains shown) VH: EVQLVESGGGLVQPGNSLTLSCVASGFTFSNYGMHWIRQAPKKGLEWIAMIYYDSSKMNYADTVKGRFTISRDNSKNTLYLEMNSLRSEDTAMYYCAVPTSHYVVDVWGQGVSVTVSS VL: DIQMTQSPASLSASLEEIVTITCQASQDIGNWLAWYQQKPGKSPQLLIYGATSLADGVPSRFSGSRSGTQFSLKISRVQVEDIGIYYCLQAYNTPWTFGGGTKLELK , % double-positive cells vs WT read as 70

Notebook: Clone C VNAR-hFc fusion (Fc fusion, not shown: a dimerising Fc or GST, bivalent VNAR-Fc; also called Clone C-hFc) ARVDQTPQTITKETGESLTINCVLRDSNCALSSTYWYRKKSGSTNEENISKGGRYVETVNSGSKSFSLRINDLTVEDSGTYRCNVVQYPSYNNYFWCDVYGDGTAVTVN , % double-positive cells vs WT read as 97

Turning to the following binder.
Notebook: Clone C variant 18 VNAR-hFc (Fc fusion, not shown: a dimerising Fc or GST, also called Clone C v18; Clone C var; 18) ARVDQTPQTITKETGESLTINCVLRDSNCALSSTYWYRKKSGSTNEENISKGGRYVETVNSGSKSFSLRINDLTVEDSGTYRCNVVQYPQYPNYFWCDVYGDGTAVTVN , % double-positive cells vs WT read as 136
